Where do the numbers come from? From patent US6740642B2.

The entries below are paired with their reported MIC.
System: H. influenzae 12214
Test: MIC, agar dilution, HTM medium
Format: cell-based, Haemophilus influenzae
Details: Haemophilus influenzae, read-out: MIC

[
  {
    "Compound": "CC[C@H]1OC(=O)[C@H](C)C(=O)[C@H](C)[C@@H](O[C@@H]2O[C@H](C)C[C@H](N(C)C)[C@H]2O)[C@](C)(OC)C[C@@H](C)C(=O)[C@H](C)[C@H]2[C@H](SCCn3cc(C)c(=O)[nH]c3=O)C(=O)O[C@@]21C [Compound I-7]",
    "MIC": "4 µg/mL"
  },
  {
    "Compound": "CC[C@H]1OC(=O)[C@H](C)C(=O)[C@H](C)[C@@H](O[C@@H]2O[C@H](C)C[C@H](N(C)C)[C@H]2O)[C@](C)(OC)C[C@@H](C)C(=O)[C@H](C)[C@H]2[C@H](SCCn3cnc4c(N)ncnc43)C(=O)O[C@@]21C [Compound I-14]",
    "MIC": "2 µg/mL"
  },
  {
    "Compound": "CC[C@H]1OC(=O)[C@H](C)C(=O)[C@H](C)[C@@H](O[C@@H]2O[C@H](C)C[C@H](N(C)C)[C@H]2O)[C@](C)(OC)C[C@@H](C)C(=O)[C@H](C)[C@H]2N(CCCCn3cnc(-c4cccnc4)c3)C(=O)O[C@]12C [Telithromycin (4), telithromycin]",
    "MIC": "4 µg/mL"
  },
  {
    "Compound": "CC[C@H]1OC(=O)[C@H](C)[C@@H](O[C@H]2C[C@@](C)(OC)[C@@H](O)[C@H](C)O2)[C@H](C)[C@@H](O[C@@H]2O[C@H](C)C[C@H](N(C)C)[C@H]2O)[C@](C)(O)C[C@@H](C)C(=O)[C@H](C)[C@@H](O)[C@]1(C)O [Erythromycin (1), erythromycin A]",
    "MIC": "4 µg/mL"
  },
  {
    "Compound": "CC[C@H]1OC(=O)[C@H](C)[C@@H](O[C@H]2C[C@@](C)(OC)[C@@H](O)C(C)O2)[C@H](C)[C@@H](O[C@@H]2OC(C)C[C@H](N(C)C)[C@H]2O)[C@](C)(O)C[C@@H](C)CN(C)C(C)C(O)[C@]1(C)O (stereo partly drawn) [Azithromycin (3), azithromycin]",
    "MIC": "2 µg/mL"
  },
  {
    "Compound": "CC[C@H]1OC(=O)[C@H](C)[C@@H](O[C@H]2C[C@@](C)(OC)[C@@H](O)[C@H](C)O2)[C@H](C)[C@@H](O[C@@H]2O[C@H](C)C[C@H](N(C)C)[C@H]2O)[C@](C)(OC)C[C@@H](C)C(=O)[C@H](C)[C@@H](O)[C@]1(C)O [Clarithromycin (2), clarithromycin]",
    "MIC": "8 µg/mL"
  }
]

----------
// MIC collected for St. pneumoniae 12288
Result Type: MIC (µg/mL)

[
  {
    "Chemical Structure": "CC[C@H]1OC(=O)[C@H](C)C(=O)[C@H](C)[C@@H](O[C@@H]2O[C@H](C)C[C@H](N(C)C)[C@H]2O)[C@](C)(OC)C[C@@H](C)C(=O)[C@H](C)[C@H]2[C@H](SCCn3cnc4c(N)ncnc43)C(=O)O[C@@]21C",
    "Result Type": "MIC",
    "Test Result": 0.25
  },
  {
    "Chemical Structure": "CC[C@H]1OC(=O)[C@H](C)C(=O)[C@H](C)[C@@H](O[C@@H]2O[C@H](C)C[C@H](N(C)C)[C@H]2O)[C@](C)(OC)C[C@@H](C)C(=O)[C@H](C)[C@H]2[C@H](SCCn3ccc(-c4ccncc4)n3)C(=O)O[C@@]21C",
    "Result Type": "MIC",
    "Test Result": 4
  }
]

----------
System: H. influenzae QK 50
Assay: MIC, agar dilution, HTM medium
Type: cell-based, Haemophilus influenzae
Details: Haemophilus influenzae, QK50, read-out: MIC

[
  {
    "Compound": "CC[C@H]1OC(=O)[C@H](C)C(=O)[C@H](C)[C@@H](O[C@@H]2O[C@H](C)C[C@H](N(C)C)[C@H]2O)[C@](C)(OC)C[C@@H](C)C(=O)[C@H](C)[C@H]2[C@H](SCCn3cc(C)c(=O)[nH]c3=O)C(=O)O[C@@]21C [Compound I-7]",
    "Study System": "H. influenzae QK 50",
    "Unit Of Measure": "µg/mL",
    "MIC": 4
  },
  {
    "Compound": "CC[C@H]1OC(=O)[C@H](C)C(=O)[C@H](C)[C@@H](O[C@@H]2O[C@H](C)C[C@H](N(C)C)[C@H]2O)[C@](C)(OC)C[C@@H](C)C(=O)[C@H](C)[C@H]2[C@H](SCCn3cnc4c(N)ncnc43)C(=O)O[C@@]21C [Compound I-14]",
    "Study System": "H. influenzae QK 50",
    "Unit Of Measure": "µg/mL",
    "MIC": 2
  }
]

----------
Test system: H. influenzae 11
Experiment: MIC, agar dilution, HTM medium
Format: cell-based, Haemophilus influenzae
Conditions: Haemophilus influenzae, read-out: MIC

[
  {
    "Molecule": "CC[C@H]1OC(=O)[C@H](C)[C@@H](O[C@H]2C[C@@](C)(OC)[C@@H](O)[C@H](C)O2)[C@H](C)[C@@H](O[C@@H]2O[C@H](C)C[C@H](N(C)C)[C@H]2O)[C@](C)(O)C[C@@H](C)C(=O)[C@H](C)[C@@H](O)[C@]1(C)O",
    "MIC": "4 µg/mL"
  },
  {
    "Molecule": "CC[C@H]1OC(=O)[C@H](C)C(=O)[C@H](C)[C@@H](O[C@@H]2O[C@H](C)C[C@H](N(C)C)[C@H]2O)[C@](C)(OC)C[C@@H](C)C(=O)[C@H](C)[C@H]2[C@H](SCCn3cc(C)c(=O)[nH]c3=O)C(=O)O[C@@]21C",
    "MIC": "4 µg/mL"
  },
  {
    "Molecule": "CC[C@H]1OC(=O)[C@H](C)[C@@H](O[C@H]2C[C@@](C)(OC)[C@@H](O)C(C)O2)[C@H](C)[C@@H](O[C@@H]2OC(C)C[C@H](N(C)C)[C@H]2O)[C@](C)(O)C[C@@H](C)CN(C)C(C)C(O)[C@]1(C)O (stereo partly drawn)",
    "MIC": "2 µg/mL"
  },
  {
    "Molecule": "CC[C@H]1OC(=O)[C@H](C)[C@@H](O[C@H]2C[C@@](C)(OC)[C@@H](O)[C@H](C)O2)[C@H](C)[C@@H](O[C@@H]2O[C@H](C)C[C@H](N(C)C)[C@H]2O)[C@](C)(OC)C[C@@H](C)C(=O)[C@H](C)[C@@H](O)[C@]1(C)O",
    "MIC": "16 µg/mL"
  },
  {
    "Molecule": "CC[C@H]1OC(=O)[C@H](C)C(=O)[C@H](C)[C@@H](O[C@@H]2O[C@H](C)C[C@H](N(C)C)[C@H]2O)[C@](C)(OC)C[C@@H](C)C(=O)[C@H](C)[C@H]2N(CCCCn3cnc(-c4cccnc4)c3)C(=O)O[C@]12C",
    "MIC": "4 µg/mL"
  },
  {
    "Molecule": "CC[C@H]1OC(=O)[C@H](C)C(=O)[C@H](C)[C@@H](O[C@@H]2O[C@H](C)C[C@H](N(C)C)[C@H]2O)[C@](C)(OC)C[C@@H](C)C(=O)[C@H](C)[C@H]2[C@H](SCCn3cnc4c(N)ncnc43)C(=O)O[C@@]21C",
    "MIC": "4 µg/mL"
  }
]

----------
// MIC collected for S. aureus ATCC29213
Result Type: MIC

[
  {
    "Compound": "CC[C@H]1OC(=O)[C@H](C)C(=O)[C@H](C)[C@@H](O[C@@H]2O[C@H](C)C[C@H](N(C)C)[C@H]2O)[C@](C)(OC)C[C@@H](C)C(=O)[C@H](C)[C@H]2CC(=O)O[C@@]21C [Compound I-25]",
    "Test Result": "0.5 µg/mL"
  },
  {
    "Compound": "CC[C@H]1OC(=O)[C@H](C)C(=O)[C@H](C)[C@@H](O[C@@H]2O[C@H](C)C[C@H](N(C)C)[C@H]2O)[C@](C)(OC)C[C@@H](C)C(=O)[C@H](C)[C@H]2[C@H](SCCn3ccc(-c4cccnc4)n3)C(=O)O[C@@]21C [Compound I-16]",
    "Test Result": "≤ 0.12 µg/mL"
  },
  {
    "Compound": "CC[C@H]1OC(=O)[C@H](C)C(=O)[C@H](C)[C@@H](O[C@@H]2O[C@H](C)C[C@H](N(C)C)[C@H]2O)[C@](C)(OC)C[C@@H](C)C(=O)[C@H](C)[C@H]2[C@H](SCCn3cnc4c(N)ncnc43)C(=O)O[C@@]21C [Compound I-14]",
    "Test Result": "≤ 0.12 µg/mL"
  },
  {
    "Compound": "CC[C@H]1OC(=O)[C@H](C)C(=O)[C@H](C)[C@@H](O[C@@H]2O[C@H](C)C[C@H](N(C)C)[C@H]2O)[C@](C)(OC)C[C@@H](C)C(=O)[C@H](C)[C@H]2[C@H](SCCn3ccc(-c4ccncc4)n3)C(=O)O[C@@]21C [Compound I-19]",
    "Test Result": "≤ 0.12 µg/mL"
  }
]
